Each item that follows carries a reported viability at 24 h, 25 µM.
Assay Details: Cytotoxicity against human A-375 cells assessed as cell viability at 25 uM measured after 24 hrs by CCK-8 assay relative to control
Format: toxicity, cell-based
Run Conditions: read-out: Activity
Readout Kind: viability at 24 h, 25 µM

INSERT INTO assay_data (smiles_code, result) VALUES
  ('CC1(C)C(/C=C/C2=C3Oc4cc(O)ccc4C=C3CCC2)=[N+](CCCCCC(=O)NC[C@H]2O[C@@H](O[C@@H]3[C@@H](O)[C@H](N)C[C@H](N)[C@H]3O[C@H]3O[C@H](CN)[C@@H](O)[C@H](O)[C@H]3N)[C@H](O)[C@@H]2O[C@H]2O[C@@H](CN)[C@@H](O)[C@H](O)[C@H]2N)c2ccccc21', '> 80%'),
  ('CC(C)C[C@H](N)C(=O)Nc1ccc(COc2ccc3c(c2)OC2=C(/C=C/C4=[N+](CCCCCC(=O)NC[C@H]5O[C@@H](O[C@@H]6[C@@H](O)[C@H](N)C[C@H](N)[C@H]6O[C@H]6O[C@H](CN)[C@@H](O)[C@H](O)[C@H]6N)[C@H](O)[C@@H]5O[C@H]5O[C@@H](CN)[C@@H](O)[C@H](O)[C@H]5N)c5ccccc5C4(C)C)CCCC2=C3)cc1', '> 80%');
